Quick list: pKi per entry.
Biological target: D2 receptors (Homo sapiens (Human), UniProt P14416)
Assay: CHO-D2 radioligand binding assay ([3H]N-methylspiperone competition)
Conditions: CHO-D2 membranes, [3H]N-methylspiperone; read-out: D2 Binding Ki ± SEM
Sequence (P14416 whole entry): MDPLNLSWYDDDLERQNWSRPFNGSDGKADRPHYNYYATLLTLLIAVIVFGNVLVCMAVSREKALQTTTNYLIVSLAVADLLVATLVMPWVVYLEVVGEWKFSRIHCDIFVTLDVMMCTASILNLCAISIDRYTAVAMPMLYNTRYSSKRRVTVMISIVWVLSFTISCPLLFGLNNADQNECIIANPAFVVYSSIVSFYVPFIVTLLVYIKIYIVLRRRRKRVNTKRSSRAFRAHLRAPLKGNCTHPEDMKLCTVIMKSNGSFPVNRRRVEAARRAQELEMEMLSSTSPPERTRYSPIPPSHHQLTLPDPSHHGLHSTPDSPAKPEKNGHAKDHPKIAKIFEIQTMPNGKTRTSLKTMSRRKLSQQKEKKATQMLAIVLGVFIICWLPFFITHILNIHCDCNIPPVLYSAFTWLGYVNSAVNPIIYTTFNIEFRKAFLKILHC
API: returns pKi as number; meaning -log10 of concentration in mol/L.

>>> print(df.to_string())
                                   compound  measure_name  observed_value
0  O=c1[nH]c2ccc(OCCCN3CCCN(c4cccc(Cl)c4Cl)CC3)cc2[nH]1           pKi            8.35
1  O=c1[nH]c2ccc(OCCCN3CCN(c4cccc(Cl)c4Cl)CC3)cc2[nH]1           pKi            7.60
2  CC(C)Oc1ccccc1N1CCCN(CCCCOc2ccc3ccc(=O)[nH]c3c2)CC1           pKi            9.03
3  Clc1cccc(N2CCN(CCCCOc3ccc4cn[nH]c4c3)CC2)c1Cl           pKi            7.18

Query: I'd like to know its pKi. The compound in question is `O=C1CCc2ccc(OCCCCN3CCN(c4cccc5c4OCCO5)CC3)nc2N1`
Response: 9.35

Query: I'd like to know its pKi. The compound in question is `Clc1cccc(N2CCN(CCCOc3ccc4scnc4c3)CC2)c1Cl`
Response: 7.52

Query: I'd like to know its pKi. The compound in question is `CC(=O)Nc1cc(OCCCCN2CCN(c3cccc(Cl)c3Cl)CC2)ccc1C`
Response: 7.14

Query: I'd like to know its pKi. The compound in question is O=C1CCc2ccc(OCC3CCC(CN4CCN(c5cccc(Cl)c5Cl)CC4)CC3)cc2N1 (stereo not drawn)
Response: 6.84

Query: I'd like to know its pKi. The compound in question is `O=c1[nH]c2ccc(OCCCCN3CCN(c4cccc(Cl)c4Cl)CC3)cc2[nH]1`
Response: 7.82

---

Molecular target: D2 receptors (Homo sapiens (Human), UniProt P14416)
Assay: D2 β-arrestin recruitment (Tango) assay
Type: cell-based
Settings: HTLA cells; read-out: β-arrestin (Tango) EC50
Sequence (P14416 whole entry, looked up): as the sequence (P14416 whole entry) above
Quick list: pEC50 per entry.
API: returns pEC50 as number; meaning -log10 of concentration in mol/L.

Please review the following examples before continuing.
>>> df
                                smiles_text                           target_of_assay  measure_name  observed_value
0  O=C1CCc2ccc(OCCCCN3CCN(c4cccc5c4OCCO5)CC3)cc2N1  D2 receptors (Homo sapiens (Human), UniProt P14416)         pEC50            8.82
1  O=C1CCc2ccc(OCCCCN3CCCN(c4cccc(Cl)c4Cl)CC3)nc2N1  D2 receptors (Homo sapiens (Human), UniProt P14416)         pEC50            8.48

Query: I'd like to know its pEC50. The molecule in question is `O=C1CCc2ccc(OCCCCN3CCN(c4cccc5c4OCCO5)CC3)nc2N1`
Response: 9.22

Query: I'd like to know its pEC50. The molecule in question is `Clc1cccc(N2CCN(CCCOc3ccc4scnc4c3)CC2)c1Cl`
Response: 6.97

Query: I'd like to know its pEC50. The molecule in question is `CCOc1ccccc1N1CCCN(CCCCOc2ccc3c(n2)NC(=O)CC3)CC1`
Response: 8.40

Query: I'd like to know its pEC50. The molecule in question is `O=C1NCCc2ccc(OCCCCN3CCN(c4cccc(Cl)c4Cl)CC3)cc21`
Response: 7.74

Query: I'd like to know its pEC50. The molecule in question is `O=c1ccc2ccc(OCCCN3CCCN(c4cccc(Cl)c4Cl)CC3)cc2[nH]1`
Response: 8.66

Query: I'd like to know its pEC50. The molecule in question is `CCOc1ccccc1N1CCCN(CCCCOc2ccc3c(c2)NC(=O)CC3)CC1`
Response: 8.37

Query: I'd like to know its pEC50. The molecule in question is `CC(=O)Nc1cc(OCCCCN2CCN(c3cccc(Cl)c3Cl)CC2)ccc1C`
Response: 8.04
